Just for reference, paper PMC10692386 is where these values come from.

- System: WT HIV-1
- assay-explanation: Anti-HIV-1 activity in MT-4 cells infected with HIV-1
- Format: cell-based
- condition-notes: Human immunodeficiency virus 1, MT4
reported-property: pEC50
# pEC50 is unitless: minus log10 of the molar concentration; print number only

Cn1c(Cn2ccc(C(F)(F)F)c(Oc3cncc(Br)c3)c2=O)n[nH]c1=O    6.31
Cc1cncc(Oc2c(C(F)(F)F)ccn(Cc3n[nH]c(=O)n3C)c2=O)c1    6.28
Cn1c(Cn2ccc(C(F)(F)F)c(Oc3ccc(Cl)nc3)c2=O)n[nH]c1=O    4.45

Need pEC50, item `Cn1c(Cn2ccc(C(F)(F)F)c(Oc3cncc(Cl)c3)c2=O)n[nH]c1=O`
6.26

Need pEC50, item `Cc1cc(Oc2c(C(F)(F)F)ccn(Cc3n[nH]c(=O)n3C)c2=O)cnc1F`
5.84

Need pEC50, item `Cn1c(Cn2ccc(C(F)(F)F)c(Oc3cccc4ncccc34)c2=O)n[nH]c1=O`
5.35

Need pEC50, item `Cc1ncccc1Oc1c(C(F)(F)F)ccn(Cc2n[nH]c(=O)n2C)c1=O`
5.17

Need pEC50, item `Cn1c(Cn2ccc(C(F)(F)F)c(Oc3cccc4ccncc34)c2=O)n[nH]c1=O`
5.91

Need pEC50, item `Cn1c(Cn2ccc(C(F)(F)F)c(Oc3cccc4cnccc34)c2=O)n[nH]c1=O`
7.66

Need pEC50, item `Cc1ccncc1Oc1c(C(F)(F)F)ccn(Cc2n[nH]c(=O)n2C)c1=O`
5.82

Need pEC50, item `Cc1cc(Oc2c(C(F)(F)F)ccn(Cc3n[nH]c(=O)n3C)c2=O)c2cc(F)c(Cl)cc2n1`
4.93

Need pEC50, item `Cn1c(Cn2ccc(C(F)(F)F)c(Oc3ccc4nc(Cl)ccc4c3)c2=O)n[nH]c1=O`
4.33

Need pEC50, item `Cn1c(Cn2ccc(C(F)(F)F)c(Oc3cccnc3Cl)c2=O)n[nH]c1=O`
5.37
